Test system: IGROV-1
Measurement description: NCI tumour cell line growth inhibition, 48 h
The source made the active and inactive calls. Cut-off read from the data, not from the text of the source: active = GI50 up to about 1.1 µM and inactive = higher.
Pick from true (1) (active), false (0) (inactive) when you respond.

CN1CCc2c(sc3nc(Nc4ccccc4)n(N)c(=O)c23)C1: false (0)
Cc1ccc(/C=C/C(=O)c2ccc([N+](=O)[O-])cc2)cc1: false (0)
O=C(O)CCC1(c2ccccc2)NC(=O)NC1=O (stereo not drawn): false (0)
O=P(c1ccccc1)(c1ccccc1)C1CC=C(c2ccccc2)C2(CCCC2)C1 (stereo not drawn): false (0)

Hi team, can someone confirm the assay call for Cc1cc(Cl)ccc1NC(=O)CCCC(=O)C(C(=O)c1ccccc1)c1ccccc1 (stereo not drawn) ?
false (0)

Just curious, what result did "Cc1cnc2nc(-c3ccc(F)cc3)cc(O)c2c1" get here?
false (0)

Please share the test call associated with "Oc1ccc(O)c(CNc2ccccc2)c1" .
false (0)

Returns: the outcome recorded for "CN1CCN([C@H]2C[C@H]3[C@@H]4CC=C5C[C@@H](O)CC[C@]5(C)[C@H]4CC[C@]3(C)[C@H]2O)CC1" in this assay.
false (0)

I'd appreciate the recorded outcome for CCOC(=O)C1=C(C)NC(=S)NC1c1ccccc1 (stereo not drawn) from this test.
false (0)
